- Target Entity: T1, human DKK1 (human, UniProt O94907 32-266)
- T1 sequence: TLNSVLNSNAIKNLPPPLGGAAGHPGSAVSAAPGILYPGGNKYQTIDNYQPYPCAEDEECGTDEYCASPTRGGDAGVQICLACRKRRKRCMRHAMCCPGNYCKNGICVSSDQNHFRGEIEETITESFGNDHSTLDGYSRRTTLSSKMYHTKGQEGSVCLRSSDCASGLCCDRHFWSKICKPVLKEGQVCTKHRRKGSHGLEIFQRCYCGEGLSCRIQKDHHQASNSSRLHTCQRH
- Procedure Summary: cell-based or functional assay
Recorded Metric: ST2 EC50 (nM)
Answers are plain numbers, in nM.

- 5.32.1 (antibody, V domains shown, Fully human hybridoma IgG, kappa (Vk)) VH: QVQLVQSGAEVKKPGASVKVSCKASGFTFTSYDISWVRQATGLGLEWMGWMNPSSGYTGYAQNFQGRVTMTWNTSISTVYMELSSLRSEDTAVYYCARTDYYYYGMDVWGRGTTVTVSS VL: DIQMTQSPSSLSASVGDRVTITCQASQDISKDLNWYQQKPGKAPKLLIYDASNLETGVPSRFSGSGSGTDFTFTISSLQPEDIATYYCQQYDDLPITFGQGTRLEIK: 3.48

Consider the record given below.
Consider the binder 6.37.5 (antibody, V domains shown, Fully human IgG, kappa (Vk)) VH: QVQLVESGGGVVQPGRSLRLSCAASGFTFSGYGMHWVRQAPGKGLEWVAVISYDGNDKYYADSVKGRFTISRDNAKNTLYLQMNSLRAEDTAVYYCARELRVLWGQGTLVTVSS VL: DIVMTQTPLSLSVTPGQPASISCKSGQSLLHSDGKTYLYWYLQKPGQPPQFLIYEVSNRFSRVPDRFSGSGSGTDFTLRISRVEAEDVGIYYCMQSIQLPWTFGQGTQVEIK and give its measured ST2 EC50.
3.98
